Please respond with reported IC50 for every item in the list.
- Target entity: DRB1*0404
- Procedure summary: binding to purified HLA
Remember to quote the unit after the number.

Recorded IC50, per entry:
AAAFFVAANTLHAAA [F4.N9.H12]; 4.1 nM
AAAYFVAAFTLHAAA [Y4.F9.H12]; 0.67 nM
AAAWFVAANTLHAAA [W4.N9.H12]; 5.5 nM

Required: IC50, one value per binder below.
1. AAAFFVAANTLKADA [F4.N9.D14]
2. AAAHFVAAWTLHAAA [H4.H12]
3. AAAKFVAAWTLKAAA [SEQ ID NO: 4]
4. AAAYFVAANTLHAAA [Y4.N9.H12]
5. AAAYFVAAWTLHAAA [Y4.H12]

4.5 nM
2.5 nM
2.9 nM
5.2 nM
2.6 nM
